- target: T1, human GPC3 (Glypican-3) (human, UniProt P51654 25-580)
- T1 construct: whole, on cells; the cell line is named under assay or readout
- run.description: FACS on HepG2 cells
endpoint: EC50
A complete answer gives the number followed by the unit.

### Prompt What value of measured EC50 is listed for Hu 52H5D3B8-8-ZLA (antibody, human IgG1, kappa, V domains shown, ZLA linker-payload on cysteine thiols freed by TCEP reduction of disulfide bonds; positions not given, Constant regions as for Hu 52H5D3B8-8; also called Hu 52H5D3B8-8 ADC; Anti-GPC3-ZLA) VH: EVQLVQSGAEVKKPGASVKVSCKASGYTFTDYEMHWVRQAPGQGLEWMGAIHPGSGGTAYNQKFKGRVTMTADKSISTAYMELSRLRSDDTAVYYCTRFYSYAYWGQGTLVTVSS VL: DVVMTQTPLSLSVTPGQPASISCRSSQSLVHSNGNTYLQWYLQKPGQSPQLLIYKVSNRFSGVPDRFSGSGSGTDFTLKISRVEAEDVGVYFCSQSIHVPYTFGGGTKVEIKR ?
### Response 0.0569 µg/mL

### Prompt What value of measured EC50 is listed for GC33 antibody (Chugai Pharmaceutical) (antibody, V domains shown, Control antibody, prepared as in US 7919086 B2; Whole antibody; Detected with anti-human IgG) VH: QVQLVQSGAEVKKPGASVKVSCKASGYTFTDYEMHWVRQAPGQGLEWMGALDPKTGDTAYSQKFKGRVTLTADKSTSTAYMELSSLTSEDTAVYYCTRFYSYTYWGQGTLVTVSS VL: DVVMTQSPLSLPVTPGEPASISCRSSQSLVHSNGNTYLHWYLQKPGQSPQLLIYKVSNRFSGVPDRFSGSGSGTDFTLKISRVEAEDVGVYYCSQNTHVPPTFGQGTKLEIK ?
### Response 0.269 µg/mL

### Prompt What value of measured EC50 is listed for Hu 52H5D3B8-8 (antibody, human IgG1, kappa, V domains shown, also called humanized GPC3 antibody Hu 52H5D3B8-8) VH: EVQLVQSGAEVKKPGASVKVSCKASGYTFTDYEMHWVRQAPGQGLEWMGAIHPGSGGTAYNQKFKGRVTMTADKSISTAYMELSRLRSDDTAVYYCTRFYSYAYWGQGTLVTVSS VL: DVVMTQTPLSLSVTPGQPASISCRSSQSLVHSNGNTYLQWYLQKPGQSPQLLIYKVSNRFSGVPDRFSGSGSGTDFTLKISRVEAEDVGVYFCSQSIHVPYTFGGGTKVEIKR ?
### Response 0.0743 µg/mL
